- System: Cowpox Brighton
- TEST: microbe, parasite or virus in culture
- Type: cell-based, cowpox virus (CV)
- PARTICULARS: read-out: Cowpox Brighton EC50
Structures can show the parent of a compound that is named as a salt.
// reported pEC50 per item
Kindly note that pEC50 refers to -log10 of the concentration in mol/L and answer with the value alone.

Prompt: Would you kindly share the measured pEC50 for CCCCCCCCCCCCCCCCOP(=O)(O)COC(CO)Cn1ccc(N)nc1=O (centres unmarked) [HD-CDV, Hexadecyl Cidofovir, Sodium Salt] ?
Response: 5.22

---
Prompt: Would you kindly share the measured pEC50 for CCCCCCCCCCCCCCCCCCCCOP(=O)(O)CO[C@H](CO)Cn1ccc(N)nc1=O [EC-CDV, Eicosyl Cidofovir, Sodium Salt] ?
Response: 5.82

Hey, just so you know, these numbers are from patent US8193167B2.
